# target_or_system: Sphingosine 1-phosphate receptor 3 (Homo sapiens) (UniProt Q99500)
# Sequence (Q99500 whole entry): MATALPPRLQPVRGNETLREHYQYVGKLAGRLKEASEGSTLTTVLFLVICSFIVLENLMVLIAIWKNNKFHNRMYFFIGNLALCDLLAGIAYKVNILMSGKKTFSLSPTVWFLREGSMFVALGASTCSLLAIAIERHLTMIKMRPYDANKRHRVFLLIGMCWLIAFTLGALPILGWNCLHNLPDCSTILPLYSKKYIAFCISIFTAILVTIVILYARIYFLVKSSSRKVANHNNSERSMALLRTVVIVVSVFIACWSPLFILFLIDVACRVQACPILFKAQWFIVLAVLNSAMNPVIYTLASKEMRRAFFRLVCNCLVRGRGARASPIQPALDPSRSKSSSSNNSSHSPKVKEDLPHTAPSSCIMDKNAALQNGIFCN
# experiment: Ratio of agonistic EC50 for S1P to compound for human S1P3 receptor by [35S]GTPgammaS binding assay
# Type: functional
Provide the reported Ratio EC50 of each item.
Answers are plain numbers.

Example results:
CCCCCCCCc1ccc(-c2cnc([C@@](C)(N)COP(=O)(O)O)[nH]2)cc1.O=C(O)C(F)(F)F.O=C(O)C(F)(F)F; 50.8
CCCCCCCCc1ccc(-c2noc(C(C)(N)COP(=O)(O)O)n2)cc1 (racemic); 23
CCCCCCCCc1ccc(-c2coc(C(C)(N)COP(=O)(O)O)n2)cc1 (centres undefined); 52.5

// next item, Ratio EC50 requested
Ask: Suppose we examine the molecule `CCCCCCCCc1ccc(-c2cnc([C@](C)(N)COP(=O)(O)O)[nH]2)cc1.O=C(O)C(F)(F)F.O=C(O)C(F)(F)F` ; what Ratio EC50 value has been reported?
Reply: 1000

====

# target_or_system: UniProt:Q99500
# experiment: Ratio of agonistic Emax for S1P to compound for human S1P3 receptor by [35S]GTPgammaS binding assay
# Assay type: functional
readout: Ratio
Numbers only.

Example results:
CCCCCCCCc1ccc(-c2cnc([C@@](C)(N)COP(=O)(O)O)[nH]2)cc1.O=C(O)C(F)(F)F.O=C(O)C(F)(F)F; 0.65
CCCCCCCCc1ccc(-c2noc(C(C)(N)COP(=O)(O)O)n2)cc1 (racemic); 0.51

Could you tell me Ratio for each of these molecules? They are listed below.
1. CCCCCCCCc1ccc(-c2coc(C(C)(N)COP(=O)(O)O)n2)cc1 (centres undefined)
2. CCCCCCCCc1ccc(-c2cnc([C@](C)(N)COP(=O)(O)O)[nH]2)cc1.O=C(O)C(F)(F)F.O=C(O)C(F)(F)F

Reply:
1: 1; 2: 0.61

====

# target_or_system: Sphingosine 1-phosphate receptor 5 (Homo sapiens)
# experiment: Ratio of agonistic EC50 for S1P to compound for human S1P5 receptor by [35S]GTPgammaS binding assay
# Format: functional
Provide the reported Ratio EC50 of each item.
One number for each entry.

CCCCCCCCc1ccc(-c2coc(C(C)(N)COP(=O)(O)O)n2)cc1 (stereo not given); 24.1
CCCCCCCCc1ccc(-c2noc(C(C)(N)COP(=O)(O)O)n2)cc1 (racemic); 4.35
CCCCCCCCc1ccc(-c2cnc([C@](C)(N)COP(=O)(O)O)[nH]2)cc1.O=C(O)C(F)(F)F.O=C(O)C(F)(F)F; 16.1
CCCCCCCCc1ccc(-c2cnc([C@@](C)(N)COP(=O)(O)O)[nH]2)cc1.O=C(O)C(F)(F)F.O=C(O)C(F)(F)F; 3.62

// next item, Ratio EC50 requested
Ask: Suppose we examine the compound CCCCCCCCc1ccc(-c2nc(C(C)(N)COP(=O)(O)O)no2)cc1 (stereo not given) ; what Ratio EC50 value has been reported?
Reply: 21.6

====

# target_or_system: UniProt:Q9H228
# Sequence (Q9H228 whole entry): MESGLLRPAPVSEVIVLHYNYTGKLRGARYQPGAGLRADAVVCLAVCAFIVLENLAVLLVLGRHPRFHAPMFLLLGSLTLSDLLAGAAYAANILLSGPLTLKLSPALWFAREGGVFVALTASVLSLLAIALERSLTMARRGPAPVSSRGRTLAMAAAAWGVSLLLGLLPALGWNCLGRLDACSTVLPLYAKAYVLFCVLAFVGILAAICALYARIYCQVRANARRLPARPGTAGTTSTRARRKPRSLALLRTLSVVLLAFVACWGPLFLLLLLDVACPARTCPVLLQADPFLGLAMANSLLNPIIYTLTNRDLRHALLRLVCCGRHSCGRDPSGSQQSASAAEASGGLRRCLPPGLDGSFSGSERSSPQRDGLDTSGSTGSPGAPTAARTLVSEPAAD
# experiment: Ratio of agonistic Emax for S1P to compound for human S1P5 receptor by [35S]GTPgammaS binding assay
# Format: functional
readout: Ratio
One number for each entry.

CCCCCCCCc1ccc(-c2cnc([C@@](C)(N)COP(=O)(O)O)[nH]2)cc1.O=C(O)C(F)(F)F.O=C(O)C(F)(F)F; 0.83
CCCCCCCCc1ccc(-c2cnc([C@](C)(N)COP(=O)(O)O)[nH]2)cc1.O=C(O)C(F)(F)F.O=C(O)C(F)(F)F; 0.83
CCCCCCCCc1ccc(-c2coc(C(C)(N)COP(=O)(O)O)n2)cc1 (stereo not given); 0.6
CCCCCCCCc1ccc(-c2nc(C(C)(N)COP(=O)(O)O)no2)cc1 (stereo not given); 1

// next item, Ratio requested
Ask: Suppose we examine the compound CCCCCCCCc1ccc(-c2noc(C(C)(N)COP(=O)(O)O)n2)cc1 (racemic) ; what Ratio value has been reported?
Reply: 0.73
